Below, each of the sequences is paired with its reported Kd value.
- targetOrTestSystem: HLA-B*27:03
- assayRemarks: IEDB peptide-MHC binding, purified MHC/competitive/fluorescence; filed as Kd, often an IC50 or EC50 that approximates it; bounds were set here for any values at or beyond the usual limits of such assays
- conditionSummary: source organism: Homo sapiens

| itemSequence | targetOrTestSystem | Kd |
| --- | --- | --- |
| SLGDPLHQA | HLA-B*27:03 | ≥ 20 µM |
| WSTIWRQLY | HLA-B*27:03 | ≥ 20 µM |
| SQLPPACPV | HLA-B*27:03 | ≥ 20 µM |
| WTDLFDNKV | HLA-B*27:03 | ≥ 20 µM |
